Tested on: Kasumi-1
Assay: CellTox Green cytotoxicity fluorescence relative to DMSO vehicle (fold of vehicle RFU); higher = more cell death (loss of membrane integrity), active = 2 or more
Conditions: 1 µM; 24 h
This section presents molecules with their documented CellTox Green cytotoxicity fluorescence values.
measured.endpoint: CellTox Green cytotoxicity fluorescence

- smiles.input: "CC1=C(O)C(=O)C=C2C1=CC=C1[C@@]2(C)CC[C@@]2(C)[C@@H]3C[C@](C)(C(=O)O)CC[C@]3(C)CC[C@]12C"
  quantitative.result: 1.23
- smiles.input: "CC[C@H](C)[C@@H]([C@@H](CC(=O)N1CCC[C@H]1[C@H](OC)[C@@H](C)C(=O)N[C@H](C)[C@@H](O)c1ccccc1)OC)N(C)C(=O)[C@@H](NC(=O)[C@@H](NC)C(C)C)C(C)C"
  quantitative.result: 1.31
- smiles.input: "COc1cc([C@@H]2c3cc4c(cc3[C@H](O)[C@H]3COC(=O)[C@@H]23)OCO4)cc(OC)c1OC"
  quantitative.result: 1.16
- smiles.input: "O=C(O)C(=O)c1cn(Cc2ccccc2)c2ccc(-c3ccc(OC(F)(F)F)cc3)cc12"
  quantitative.result: 0.968
